Listing of entries alongside the reported pEC50.
# tested.on: ERR1 (also known as ERR-α or ERR-1) (Homo sapiens, UniProt P11474)
# Sequence (P11474 193-421 limits assumed, species assumed): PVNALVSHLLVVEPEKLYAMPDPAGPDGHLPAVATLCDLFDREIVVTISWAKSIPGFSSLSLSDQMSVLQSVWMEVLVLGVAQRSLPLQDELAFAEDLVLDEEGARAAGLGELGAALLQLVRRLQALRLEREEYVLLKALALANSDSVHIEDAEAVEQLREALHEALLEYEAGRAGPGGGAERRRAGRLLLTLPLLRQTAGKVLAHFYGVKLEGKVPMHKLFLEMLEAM
# test.details: TR-FRET assay (disruption of co-activator peptide binding to ERR1 LBD)
# assay.conditions: 6 nM 6His-ERR1LBD, 6 nM GST-SRC-2 peptide; average of 3 independent experiments
# pEC50 is unitless: minus log10 of the molar concentration; print number only

Example results:
CCN1CC[C@@H](N2C(=O)S/C(=C\c3ccc4c(cnn4Cc4ccc(Cl)cc4C(F)(F)F)c3)C2=O)[C@H](F)C1 [Compound 386]	7.38
O=C1S/C(=C\c2ccc3c(cnn3Cc3ccc(Cl)cc3C(F)(F)F)c2)C(=O)N1C[C@@H]1CCCN1CCO [Compound 153]	7.77
O=C(O)CN1C(=O)S/C(=C\c2ccc3c(cnn3Cc3ccc(Cl)cc3C(F)(F)F)c2F)C1=O [Compound 347]	6.94
O=C1S/C(=C\c2ccc3c(cnn3Cc3ccc(Cl)cc3C(F)(F)F)c2)C(=O)N1C1CCCNCC1 (stereo not shown) [Compound 77]	7.55
O=C(O)C1CC(N2C(=O)S/C(=C\c3ccc4c(cnn4Cc4ccc(C(F)(F)F)cc4C(F)(F)F)c3)C2=O)C1 (stereo not shown) [Compound 70]	7.32
CS(=O)(=O)CCN1C(=O)S/C(=C\c2ccc3c(cnn3Cc3ccc(Cl)cc3C(F)(F)F)c2)C1=O [Compound 129]	7.74
C[C@@H](CN1C(=O)S/C(=C\c2ccc3c(cnn3Cc3ccc(Cl)cc3C(F)(F)F)c2)C1=O)NS(C)(=O)=O [Compound 157]	7.64
COc1ccc(Cn2ncc3cc(/C=C4\SC(=O)N(CCN5CC[C@H](O)C5)C4=O)ccc32)c(C(F)(F)F)c1 [Compound 14]	7.00
N=C(N)NOCCN1C(=O)S/C(=C\c2ccc3c(cnn3Cc3ccc(C(F)(F)F)cc3C(F)(F)F)c2)C1=O [Compound 103]	7.37
O=C(O)CN1C(=O)S/C(=C\c2ccc3c(c2)nnn3Cc2ccc(Cl)cc2C(F)(F)F)C1=O [Compound 260]	7.39

## Input Read the entry O=C1S/C(=C\c2ccc3c(cnn3Cc3ccc(Cl)cc3C(F)(F)F)c2)C(=O)N1C[C@@H]1CN2CCC[C@H]2CO1 [Compound 203] and write its reported pEC50.
## Output 7.28

## Input Consider the molecule O=C1S/C(=C\c2ccc3c(cnn3Cc3ccc(C(F)(F)F)cc3C(F)(F)F)c2)C(=O)N1C[C@@H]1CCCN2CCCC[C@H]12 [Compound 207] and give its recorded pEC50.
## Output 6.72

## Input Return value of pEC50 for input O=C1S/C(=C\c2ccc3c(cnn3Cc3ccc(C(F)(F)F)cc3C(F)(F)F)c2)C(=O)N1C[C@@H]1CNCCO1 [Compound 195] , no commentary.
## Output 7.21

## Input Recall and state the measured pEC50 for O=C1S/C(=C\c2ccc3c(cnn3Cc3ccc(C(F)(F)F)cc3C(F)(F)F)c2)C(=O)N1C1CN2CCC1CC2 (stereo not shown) [Compound 63] .
## Output 7.70

## Input Consider the molecule CN(C)CCCN1C(=O)S/C(=C\c2ccc3c(ccn3Cc3ccc(F)cc3C(F)(F)F)c2)C1=O [Compound 252] and give its recorded pEC50.
## Output 7.00

## Input Give the measured pEC50 for CN(C)CCN1C(=O)S/C(=C\c2ccc3c(cnn3Cc3ccc(F)cc3C(F)(F)F)c2)C1=O [Compound 5]
## Output 6.74

## Input State, in one line, measured pEC50 of COC(=O)C1(N2C(=O)S/C(=C\c3ccc4c(cnn4Cc4ccc(Cl)cc4C(F)(F)F)c3)C2=O)CCCC1 [Compound 232]
## Output 6.97

## Input Report pEC50 for CC(C)C[C@@H](N)CN1C(=O)S/C(=C\c2ccc3c(cnn3Cc3ccc(Cl)cc3C(F)(F)F)c2)C1=O [Compound 54]
## Output 7.43
